Field: pIC50. Provide a value for each of the compounds that follow.
Tested on: 8392B cell line
measurement_description: 48 hour exposure, growth or viability by Trypan Blue Exclusion assay, nontarget cell line
Format: cell-based
measurement_conditions: read-out: Mean IC50 value, 8392B Nontarget Cell Line, 48 hr exposure; 8392B nontarget cell line; 48 hr exposure; mean ± SD, N = 3 unless otherwise indicated
pIC50: −log10 of the molar value.

Worked examples follow.
compound	recorded_endpoint	result
CC1=C2C(=CC(C)(CO[Si](C)(C)C(C)(C)C)C2N)C(=O)C(C)(O)C12CC2 (stereo not drawn)	pIC50	< 5.59
CC1=C2C(=C[C@@](C)(CO[Si](C)(C)C(C)(C)C)[C@@H]2OC(=O)c2ccc(S(=O)(=O)F)cc2)C(=O)[C@](C)(O)C12CC2	pIC50	< 4.28
CC1=C2C(=O)C(C)(OC(C)C)CC2C(O)C(=O)C12CC2 (stereo not drawn)	pIC50	< 3.63
CC1=C(CCCNC(=O)OCC2=C(C(=O)O)N3C(=O)C(NC(=O)Cc4cccs4)C3S(=O)(=O)C2)C2=C(C)C3(CC3)C(C)(O)C(=O)C2=C1 (stereo not drawn)	pIC50	< 5.35
CC(=O)ON(C(C)=O)c1ccc(C(=O)OCC2(C)C=C3C(=O)C(C)(O)C4(CC4)C(C)=C3C2OC(=O)c2ccc(N(OC(C)=O)C(C)=O)cc2)cc1 (stereo not drawn)	pIC50	< 4.85

Q: Report pIC50 for `CC1=C2[C@@H](O)C(C)(C)[C@H]3C[C@@]23C(=O)[C@](C)(O)C12CC2` please.
A: < 3.42
